These entries and their values trace back to PubChem BioAssay AID588523.

tested_target: Regulator of G-protein signaling 4 (Rattus norvegicus)
protocol: RGS4 binding to activated Galpha-o blockers – biochemical, rat RGS4, AlF4-dependent, flow cytometry bead assay, dose response (AID 588523)
conditions_used: FCPIA, bead fluorescence
Calls of active or inactive are those of the source.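 How the source made its calls: active means IC50 below 100 µM from duplicate concentration-response curves; inactive means IC50 above 100 µM.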
recorded_endpoint: IC50

# count of solved cases: 5
compound: O=C(/C=C/c1ccc([N+](=O)[O-])cc1)c1ccco1
IC50: > 110 µM (inactive)
--
compound: CN1C(=O)/C(=C\c2ccc(Br)s2)C(=O)NC1=S
IC50: 12.5 µM
--
compound: COc1ccc(NC(=O)/C(C#N)=C\c2ccc(Sc3nncn3C)c([N+](=O)[O-])c2)cc1
IC50: > 110 µM (inactive)
--
compound: N[C@@H](Cc1cc(Br)c(O)c(Br)c1)C(=O)O
IC50: > 110 µM (inactive)
--
compound: Cc1csc(NC(=O)COCC(=O)O)c1-c1nc2ccccc2s1
IC50: > 110 µM (inactive)

Need IC50 for each of these compounds.
1. O=C(/C=C/c1ccncc1)c1ccc2c(c1)OCCO2
2. COc1cc2c(cc1O)C(SC)=NC(C)(C)C2
3. COC(=O)CSc1[nH]c2cc(C)ccc2c1[N+](=O)[O-]
4. COc1ccc2cc(C3C(C#N)=C(N)OC(C)=C3C(C)=O)c(Cl)nc2c1 (stereo unspecified)
5. CN1C(=O)S/C(=C\c2ccccc2OCc2ccc(C(=O)O)cc2)C1=O
6. CN1C/C(=C/c2ccncc2)C(=O)/C(=C/c2ccncc2)C1

Result ::
82.2 µM
> 110 µM (inactive)
> 110 µM (inactive)
> 110 µM (inactive)
> 110 µM (inactive)
5.4 µM

###

tested_target: Regulator of G-protein signaling 4 (Rattus norvegicus) (UniProt P49799)
Sequence (P49799 whole entry, looked up): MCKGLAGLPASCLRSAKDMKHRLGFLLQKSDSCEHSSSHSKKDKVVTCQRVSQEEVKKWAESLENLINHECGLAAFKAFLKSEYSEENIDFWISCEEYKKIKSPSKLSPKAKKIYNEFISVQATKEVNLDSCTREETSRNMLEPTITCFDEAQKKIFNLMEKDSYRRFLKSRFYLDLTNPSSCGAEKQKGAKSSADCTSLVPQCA
protocol: RGS4 binding to activated Galpha-o blockers – biochemical, rat RGS4, AlF4-dependent, flow cytometry bead assay, dose response (AID 588523)
conditions_used: FCPIA, bead fluorescence
Activity calls are given as the source filed them.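 Rule for the calls: active = IC50 below 100 µM from duplicate concentration-response curves; inactive = IC50 above 100 µM.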
I'd be grateful if you could share measured IC50 for these entries.

See these solved cases before continuing.
sample_smiles: CCOC(=O)/C=C/C(=O)OCC(=O)N1CCN(C(=O)c2ccco2)CC1
IC50: 73.9 µM
//
sample_smiles: NC(=O)N/N=C/c1c(Sc2nnnn2-c2ccccc2)nc2ccccn2c1=O
IC50: > 110 µM (inactive)
//
sample_smiles: Cc1ccccc1OCc1nnc(SCC(=O)Nc2ccc3c(c2)oc2ccccc23)n1C
IC50: > 110 µM (inactive)
//
sample_smiles: O=[N+]([O-])c1ccc(O)c(/C=N/NC(=S)Nc2ccc(Cl)cc2Cl)c1
IC50: > 110 µM (inactive)
//
sample_smiles: CC(C)OP(=O)(OC(C)C)/C(C=O)=N\Nc1ccc([N+](=O)[O-])cc1
IC50: > 110 µM (inactive)
//
sample_smiles: Cc1ccc(C(C2C(=O)CC(C)(C)CC2=O)C2C(=O)CC(C)(C)CC2=O)s1
IC50: 86.8 µM
//
sample_smiles: CC(C)(C)c1ccc(Cn2nnc3c(=O)[nH]c(C4CCN(C(=O)Cc5cccs5)CC4)nc32)cc1
IC50: > 110 µM (inactive)
//
sample_smiles: Cc1nc2c(=O)n(C)c(=O)n(C)c2nc1Cl
IC50: 78.7 µM

# map each molecule to its IC50
1. Cc1cc2nc(CS)[nH]c2cc1C
2. COc1ccc(OC)c(N2C(=O)NC(=O)/C(=C/c3ccc([N+](=O)[O-])s3)C2=O)c1
3. CC1=NOC(=O)/C1=C/c1ccc(O)cc1
4. CN1CCc2cc(O)cc3c2[C@H]1Cc1ccc(O)c(O)c1-3

Result ::
1. 23.6 µM
2. 11.9 µM
3. > 110 µM (inactive)
4. 7.5 µM

Query :: Which IC50 is listed for Cc1c(NC(=O)c2coc(=O)c(Br)c2)c(=O)n(-c2ccccc2)n1C ?
Result :: > 110 µM (inactive)
